Some compounds, each annotated with its measured viability, T/C.
System: PANC-1 complex spheroid growth, percent test/control
Experiment: Anticancer human tumor PANC-1 cell line growth inhibition [Asc];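 further: spheroids exposed to agents for 7 days; percent viability relative to DMSO vehicle wells taken as 100%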
Details: second compound 0.0316 µM; first compound 0.01 µM; active compounds read low
Note: unit % is implicit; provide only the numeric part.

The cases that follow already have their viability, T/C on record.
{"compound": "NC1CCC(NC2CC2c2ccccc2)CC1 (stereo not drawn) + Cc1c(S(C)(=O)=O)c(-c2cc(F)cc(N3CCN(c4ccc(NS(=O)(=O)c5ccc(NC(CCN6CCC(C(=O)OCCCP(=O)(O)O)CC6)CSc6ccccc6)c(S(=O)(=O)C(F)(F)F)c5)cc4)CC3)c2)c(-c2ccc(Cl)cc2)n1C(C)C", "readout.units": "%", "quantitative.readout": 91.4}
{"compound": "CNC(C)C(=O)NC1CN(S(=O)(=O)c2cccc(S(=O)(=O)N3CCC4CCC(C(=O)NC(c5ccccc5)c5ccccc5)N4C(=O)C(NC(=O)C(C)NC)C3)c2)CCC2CCC(C(=O)NC(c3ccccc3)c3ccccc3)N2C1=O (stereo not drawn) + Cc1c(S(C)(=O)=O)c(-c2cc(F)cc(N3CCN(c4ccc(NS(=O)(=O)c5ccc(NC(CCN6CCC(C(=O)OCCCP(=O)(O)O)CC6)CSc6ccccc6)c(S(=O)(=O)C(F)(F)F)c5)cc4)CC3)c2)c(-c2ccc(Cl)cc2)n1C(C)C", "readout.units": "%", "quantitative.readout": 92.3}

Next, consider the following compound.
Asked: Give viability, T/C for the following compound: O=C(c1ccc(F)c(F)c1Nc1ccc(I)cc1F)N1CC(O)([C@@H]2CCCCN2)C1 + Cc1c(S(C)(=O)=O)c(-c2cc(F)cc(N3CCN(c4ccc(NS(=O)(=O)c5ccc(NC(CCN6CCC(C(=O)OCCCP(=O)(O)O)CC6)CSc6ccccc6)c(S(=O)(=O)C(F)(F)F)c5)cc4)CC3)c2)c(-c2ccc(Cl)cc2)n1C(C)C
Given back: 88

====

System: PANC-1 complex spheroid growth, percent test/control
Assay: Anticancer human tumor PANC-1 cell line growth inhibition [Asc];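 further: spheroids exposed to agents for 7 days; percent viability relative to DMSO vehicle wells taken as 100%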
Details: second compound 0.316 µM; first compound 0.1 µM; active compounds read low
Each entry below carries its reported viability, T/C.
Hi! Could you send only the number? It should be in %, unit omitted.

Known viability, T/C results, listed for orientation:
{"compound": "C#Cc1c(F)ccc2cc(O)cc(-c3ncc4c(N5CC6CCC(C5)N6)nc(OCC56CCCN5CC(F)C6)nc4c3F)c12 (stereo not drawn) + CNC(C)C(=O)NC1CN(S(=O)(=O)c2cccc(S(=O)(=O)N3CCC4CCC(C(=O)NC(c5ccccc5)c5ccccc5)N4C(=O)C(NC(=O)C(C)NC)C3)c2)CCC2CCC(C(=O)NC(c3ccccc3)c3ccccc3)N2C1=O", "readout.units": "%", "viability, T/C": 81.8}
{"compound": "NC1CCC(NC2CC2c2ccccc2)CC1 (stereo not drawn) + CNC(C)C(=O)NC1CN(S(=O)(=O)c2cccc(S(=O)(=O)N3CCC4CCC(C(=O)NC(c5ccccc5)c5ccccc5)N4C(=O)C(NC(=O)C(C)NC)C3)c2)CCC2CCC(C(=O)NC(c3ccccc3)c3ccccc3)N2C1=O", "readout.units": "%", "viability, T/C": 93.5}
{"compound": "CNC(C)C(=O)NC1CN(S(=O)(=O)c2cccc(S(=O)(=O)N3CCC4CCC(C(=O)NC(c5ccccc5)c5ccccc5)N4C(=O)C(NC(=O)C(C)NC)C3)c2)CCC2CCC(C(=O)NC(c3ccccc3)c3ccccc3)N2C1=O (stereo not drawn) + Cc1c(S(C)(=O)=O)c(-c2cc(F)cc(N3CCN(c4ccc(NS(=O)(=O)c5ccc(NC(CCN6CCC(C(=O)OCCCP(=O)(O)O)CC6)CSc6ccccc6)c(S(=O)(=O)C(F)(F)F)c5)cc4)CC3)c2)c(-c2ccc(Cl)cc2)n1C(C)C", "readout.units": "%", "viability, T/C": 101}
{"compound": "CCN1CCN(Cc2ccc(Nc3ncc(F)c(-c4cc(F)c5nc(C)n(C(C)C)c5c4)n3)nc2)CC1 + CNC(C)C(=O)NC1CN(S(=O)(=O)c2cccc(S(=O)(=O)N3CCC4CCC(C(=O)NC(c5ccccc5)c5ccccc5)N4C(=O)C(NC(=O)C(C)NC)C3)c2)CCC2CCC(C(=O)NC(c3ccccc3)c3ccccc3)N2C1=O", "readout.units": "%", "viability, T/C": 105}
{"compound": "C#Cc1c(F)ccc2cc(O)cc(-c3ncc4c(N5CC6CCC(C5)N6)nc(OCC56CCCN5CC(F)C6)nc4c3F)c12 (stereo not drawn) + Cc1c(S(C)(=O)=O)c(-c2cc(F)cc(N3CCN(c4ccc(NS(=O)(=O)c5ccc(NC(CCN6CCC(C(=O)OCCCP(=O)(O)O)CC6)CSc6ccccc6)c(S(=O)(=O)C(F)(F)F)c5)cc4)CC3)c2)c(-c2ccc(Cl)cc2)n1C(C)C", "readout.units": "%", "viability, T/C": 77.5}

Asked: Identify measured viability, T/C associated with C=CC(=O)N1CCN(c2nc(=O)n(-c3c(C)ccnc3C(C)C)c3nc(-c4c(O)cccc4F)c(F)cc23)C(C)C1 (stereo not drawn) + Cc1c(S(C)(=O)=O)c(-c2cc(F)cc(N3CCN(c4ccc(NS(=O)(=O)c5ccc(NC(CCN6CCC(C(=O)OCCCP(=O)(O)O)CC6)CSc6ccccc6)c(S(=O)(=O)C(F)(F)F)c5)cc4)CC3)c2)c(-c2ccc(Cl)cc2)n1C(C)C
Given back: 97

Asked: Complete the entry with viability, T/C for Cn1ncnc1[C@H]1c2n[nH]c(=O)c3cc(F)cc(c23)N[C@@H]1c1ccc(F)cc1 + CNC(C)C(=O)NC1CN(S(=O)(=O)c2cccc(S(=O)(=O)N3CCC4CCC(C(=O)NC(c5ccccc5)c5ccccc5)N4C(=O)C(NC(=O)C(C)NC)C3)c2)CCC2CCC(C(=O)NC(c3ccccc3)c3ccccc3)N2C1=O
Given back: 102

Asked: Return viability, T/C (reported value) for this compound: COc1c(OCCCN2CCOCC2)ccc2c3n(c(=NC(=O)c4cnc(N)nc4)nc12)CCN3 + CNC(C)C(=O)NC1CN(S(=O)(=O)c2cccc(S(=O)(=O)N3CCC4CCC(C(=O)NC(c5ccccc5)c5ccccc5)N4C(=O)C(NC(=O)C(C)NC)C3)c2)CCC2CCC(C(=O)NC(c3ccccc3)c3ccccc3)N2C1=O
Given back: 56.9
